Target: glucocerebrosidase (Gcase) (Homo sapiens)
Construct: micellar solution containing 10 nM GCase and 100 nM saposin C
Sequence (P04062 40-536): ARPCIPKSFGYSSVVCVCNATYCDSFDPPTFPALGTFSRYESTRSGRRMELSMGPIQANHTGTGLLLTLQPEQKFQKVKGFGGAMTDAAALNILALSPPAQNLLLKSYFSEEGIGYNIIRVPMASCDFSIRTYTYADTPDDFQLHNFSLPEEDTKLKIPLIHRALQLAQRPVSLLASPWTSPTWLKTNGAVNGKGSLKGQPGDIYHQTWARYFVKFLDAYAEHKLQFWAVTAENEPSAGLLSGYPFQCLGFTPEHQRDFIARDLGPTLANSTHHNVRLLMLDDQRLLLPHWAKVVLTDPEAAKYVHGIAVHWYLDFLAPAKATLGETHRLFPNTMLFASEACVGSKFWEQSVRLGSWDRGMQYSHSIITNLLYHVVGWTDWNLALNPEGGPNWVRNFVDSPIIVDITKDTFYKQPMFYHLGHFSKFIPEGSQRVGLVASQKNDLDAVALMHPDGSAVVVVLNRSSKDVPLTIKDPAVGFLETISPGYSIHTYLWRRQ
Assay: Glucocerebrosidase (Gcase) activation assay, 4-methylumbelliferyl-beta-D-glucopyranoside substrate, with saposin C
Assay type: biochemical
Conditions: 1 μM test compound; 10 nM GCase, 100 nM saposin C, pH 4.7; read-out: Percent Gease Activation 1 μM Test Compound
Protocol: The ability of exemplary compounds to activate glucocerebrosidase (Gcase) was measured. A 484 μL aliquot of a 1.0 mg/mL solution of phosphatidylserine (PS) (Sigma P7769) in chloroform was evaporated under a stream of nitrogen for 1 hour. The lipid film was dissolved over 4 minutes of vigorous vortexing in 40 mL of 176 mM K2HPO4/50 mM citric acid (pH 4.7) containing 7.5 μL of triton X-100, resulting in a mixed micellar preparation with a composition of 0.32 mM triton and 0.37 mol % PS. […]
Each entry below carries its reported activation at 1 µM.

COCc1cc(C2CC2)n2cnc(C(=O)NC(C)(C)c3cccc(C#N)c3)c2n1 [III-54] | < 30%
Cc1cc(C)n2cnc(C(=O)Nc3ccc4nc(O)cc(C)c4c3)c2n1 [III-13] | < 30%
Cc1cc(C)n2cnc(C(=O)Nc3ccc(-c4cccs4)nc3)c2n1 [III-29] | > 60%
CCOCc1cccc(C(C)(C)NC(=O)c2ncn3c(C(C)C)cc(COC)nc23)c1 [III-60] | < 30%

Q: Form entry - test system: glucocerebrosidase (Gcase) (Homo sapiens); read-out: activation at 1 µM; compound: CCOCc1cccc(C(C)(C)NC(=O)c2ncn3c(COC)cc(C(C)C)nc23)c1 [III-61]
A: 30 to 60%

---

Molecular target: glucocerebrosidase (Gcase) (Homo sapiens, UniProt P04062)
Construct: micellar solution containing 10 nM GCase and 100 nM saposin C
Assay: Glucocerebrosidase (Gcase) activation assay, 4-methylumbelliferyl-beta-D-glucopyranoside substrate, with saposin C
Format: biochemical
Settings: 0.1 μM test compound; 10 nM GCase, 100 nM saposin C, pH 4.7; read-out: Percent Gease Activation 0.1 μM Test Compound
endpoint-label: activation at 0.1 µM

// known answers, use as guide
[2H]C1(NC(=O)c2ncn3c(C)cc(C)nc23)CCCCc2ccccc21 (stereo not drawn) | 10 to 20%
Cc1cc(C)n2cnc(C(=O)Nc3ccc4nccc(O)c4c3)c2n1 [III-24] | < 10%
COCc1cc(C(C)C)n2cnc(C(=O)NC(C)(C)c3cccc(OC4CC4)c3)c2n1 | 10 to 20%
CCCCCOc1ccc(NC(=O)c2ncn3c(C)cc(C)nc23)cc1 | > 20%

Q: Consider the compound shown here: C#Cc1cccc(C(C)(C)NC(=O)c2ncn3c(C)cc(C(F)(F)F)nc23)c1 What is its recorded activation at 0.1 µM?
A: < 10%

Q: Same question, CCC(C)(NC(=O)c1ncn2c(C)cc(C)nc12)c1ccc(F)cc1 (stereo not drawn) this time
A: 10 to 20%

Q: Same question, Cc1cc(C)n2cnc(C(=O)Nc3ccc4cn[nH]c4c3)c2n1 this time
A: < 10%

Q: Same question, Cc1cc(C)n2cnc(C(=O)Nc3ccc4nc(C)sc4c3)c2n1 this time
A: < 10%

Q: Same question, Cc1cc(C(C)C)n2cnc(C(=O)N[C@H]3CCCc4ccccc43)c2n1 this time
A: < 10%

---

Each entry below carries its reported activation at 1 µM.
Biological target: glucocerebrosidase (Gcase) (Homo sapiens, UniProt P04062)
Construct: micellar solution containing 10 nM GCase and 100 nM saposin C
Sequence (P04062 40-536): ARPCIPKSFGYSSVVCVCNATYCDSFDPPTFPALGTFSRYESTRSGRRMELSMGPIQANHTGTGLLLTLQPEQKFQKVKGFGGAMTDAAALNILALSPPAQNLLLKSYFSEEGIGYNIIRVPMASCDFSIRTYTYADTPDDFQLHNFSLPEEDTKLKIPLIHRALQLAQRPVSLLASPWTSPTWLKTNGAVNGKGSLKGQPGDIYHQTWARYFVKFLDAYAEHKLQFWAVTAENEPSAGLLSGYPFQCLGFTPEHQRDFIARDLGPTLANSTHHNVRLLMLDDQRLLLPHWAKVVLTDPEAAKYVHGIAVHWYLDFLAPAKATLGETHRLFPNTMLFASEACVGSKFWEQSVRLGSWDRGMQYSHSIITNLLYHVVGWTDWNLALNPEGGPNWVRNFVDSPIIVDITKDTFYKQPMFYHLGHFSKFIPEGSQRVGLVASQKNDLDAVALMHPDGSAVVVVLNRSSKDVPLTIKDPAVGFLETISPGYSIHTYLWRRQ
Experiment: Glucocerebrosidase (Gcase) activation assay, 4-methylumbelliferyl-beta-D-glucopyranoside substrate, with saposin C
Assay type: biochemical
Conditions: 1 μM test compound; 10 nM GCase, 100 nM saposin C, pH 4.7; read-out: Percent Gease Activation 1 μM Test Compound

// known answers, use as guide
Cc1cc(C)n2cnc(C(=O)Nc3ccc4c(c3)CCNC4)c2n1 [III-16] | < 30%
Cc1cc(C)n2cnc(C(=O)Nc3ccc4nccc(O)c4c3)c2n1 [III-24] | < 30%
Cc1cc(C)n2cnc(C(=O)Nc3ccc4c(c3)CCC4)c2n1 [III-22] | > 60%
Cc1cc(C)n2cnc(C(=O)Nc3ccc4nc(C)oc4c3)c2n1 [III-15] | < 30%
CCC(NC(=O)c1ncn2c(C)cc(C)nc12)c1ccc(F)cc1 (stereo not shown) [III-78] | 30 to 60%
Cc1cc(C)n2cnc(C(=O)Nc3cccc4c3CCC4)c2n1 [III-65] | > 60%
Cc1cc(C)n2cnc(C(=O)N[C@@H](C)c3ccccc3F)c2n1 [III-74] | < 30%
Cc1cc(C)n2cnc(C(=O)Nc3ccc(-c4ccco4)nc3)c2n1 [III-66] | < 30%
C#Cc1ccc(C(C)(C)NC(=O)c2ncn3c(C)cc(C)nc23)cc1 [III-42] | 30 to 60%

# next molecule below
Q: Consider the molecule shown here: COCc1cc(C2CC2)n2cnc(C(=O)NC(C)(C)c3cccc(OC4CC4)c3)c2n1 [III-55] What is its recorded activation at 1 µM?
A: > 60%

---

Target: glucocerebrosidase (Gcase) (Homo sapiens, UniProt P04062)
Construct: micellar solution containing 10 nM GCase and 100 nM saposin C
Assay: Glucocerebrosidase (Gcase) activation assay, 4-methylumbelliferyl-beta-D-glucopyranoside substrate, with saposin C
Type: biochemical
Conditions: 1 μM test compound; 10 nM GCase, 100 nM saposin C, pH 4.7; read-out: Percent Gease Activation 1 μM Test Compound
endpoint-label: activation at 1 µM

// known answers, use as guide
CCCOc1cccc(C(C)(C)NC(=O)c2ncn3c(COC)c(OC)c(C)nc23)c1 | 30 to 60%
Cc1cc(C)n2cnc(C(=O)Nc3ccc(Cl)c(COc4cccnc4)c3)c2n1 | > 60%
CCCCCOC1CCC(NC(=O)c2ncn3c(C(C)C)cc(C)nc23)CC1 (centres unmarked) | 30 to 60%
C#Cc1ccc(C(C)(C)NC(=O)c2ncn3c(C)cc(C(F)(F)F)nc23)cc1 | < 30%
C#Cc1cccc(C(C)(C)NC(=O)c2ncn3c(C)cc(C)nc23)c1 | > 60%
Cc1cc(C)n2cnc(C(=O)Nc3ccc4c(c3)OCO4)c2n1 | < 30%

Q: Consider the compound shown here: Cc1cc(C)n2cnc(C(=O)Nc3ccc4nc(C)sc4c3)c2n1 What is its recorded activation at 1 µM?
A: < 30%

Q: Same question, Cc1cc(C)n2cnc(C(=O)N[C@@H](C)c3cccc(Cl)c3)c2n1 this time
A: 30 to 60%

Q: Same question, O=C(NC1CCCc2ccccc21)c1ncn2c(C(F)F)cc(C(F)F)nc12 (centres unmarked) this time
A: < 30%

---

Each entry below carries its reported activation at 1 µM.
Target: glucocerebrosidase (Gcase) (Homo sapiens, UniProt P04062)
Construct: micellar solution containing 10 nM GCase and 100 nM saposin C
Assay: Glucocerebrosidase (Gcase) activation assay, 4-methylumbelliferyl-beta-D-glucopyranoside substrate, with saposin C
Assay type: biochemical
Details: 1 μM test compound; 10 nM GCase, 100 nM saposin C, pH 4.7; read-out: Percent Gease Activation 1 μM Test Compound

// known answers, use as guide
Cc1cc(C)n2cnc(C(=O)Nc3ccc(Cl)c(-c4cnco4)c3)c2n1 | 30 to 60%
Cc1cc(C)n2cnc(C(=O)Nc3ccc4[nH]ncc4c3)c2n1 | < 30%

Q: Consider the compound shown here: Cc1cc(C)n2cnc(C(=O)Nc3ncc(C)[nH]3)c2n1 What is its recorded activation at 1 µM?
A: < 30%

Q: Same question, Cc1cc(C)n2cnc(C(=O)NC3(C)CCCc4ccccc43)c2n1 (centres unmarked) this time
A: > 60%

Q: Same question, CCCOc1cccc(C(C)(C)NC(=O)c2ncn3c(COC)cc(C4CC4)nc23)c1 this time
A: > 60%
